# TGT: Prostaglandin G/H synthase 2 (Homo sapiens) (UniProt P35354)
# Sequence (whole entry): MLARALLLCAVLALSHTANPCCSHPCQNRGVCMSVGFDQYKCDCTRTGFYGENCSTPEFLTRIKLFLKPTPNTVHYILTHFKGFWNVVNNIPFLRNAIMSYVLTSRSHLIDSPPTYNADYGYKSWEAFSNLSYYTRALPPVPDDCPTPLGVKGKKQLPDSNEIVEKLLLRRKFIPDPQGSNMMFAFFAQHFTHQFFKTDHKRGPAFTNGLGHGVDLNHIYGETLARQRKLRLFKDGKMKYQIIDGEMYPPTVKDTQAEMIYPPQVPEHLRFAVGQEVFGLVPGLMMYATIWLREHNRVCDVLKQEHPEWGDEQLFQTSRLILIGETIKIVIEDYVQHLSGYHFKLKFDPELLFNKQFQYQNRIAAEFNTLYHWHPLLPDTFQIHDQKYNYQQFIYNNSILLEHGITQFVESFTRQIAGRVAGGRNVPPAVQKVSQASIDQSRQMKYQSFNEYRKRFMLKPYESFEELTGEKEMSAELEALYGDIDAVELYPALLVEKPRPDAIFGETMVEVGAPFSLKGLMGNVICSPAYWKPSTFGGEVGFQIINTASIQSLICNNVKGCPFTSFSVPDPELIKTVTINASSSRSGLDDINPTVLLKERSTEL
# ASSAY_TEXT: Inhibition of human recombinant COX2 expressed in Sf21 cells assessed as conversion of arachidonic acid to PGE2 at 10 uM preincubated for 15 mins measured after 5 mins by enzyme immunoassay
REPORTED_ENDPOINT: inhibition (%)
Numbers only here, please. The scale is %.

### Prompt I would be grateful if you could share the reported inhibition for COc1ccc(S2=NS(=O)(=O)c3cc([N+](=O)[O-])ccc32)cc1OC (stereo unspecified) .
### Response 15

### Prompt I would be grateful if you could share the reported inhibition for Cc1ccc(S2=NS(=O)(=O)c3ccc(S(N)(=O)=O)cc32)cc1C (stereo unspecified) .
### Response 15

### Prompt I would be grateful if you could share the reported inhibition for NC(=O)c1ccc2c(c1)S(=O)(=O)N=S2c1ccc(Br)cc1 (stereo unspecified) .
### Response 0

### Prompt I would be grateful if you could share the reported inhibition for O=S1(=O)N=S(c2ccccc2)c2ccccc21 (stereo unspecified) .
### Response 0

### Prompt I would be grateful if you could share the reported inhibition for CC(C)(C)c1ccc(S2=NS(=O)(=O)c3cc(S(N)(=O)=O)ccc32)cc1 (stereo unspecified) .
### Response 21

### Prompt I would be grateful if you could share the reported inhibition for COC1(c2cc(F)cc(OCCS3=NS(=O)(=O)c4cc([N+](=O)[O-])ccc43)c2)CCOCC1 (stereo unspecified) .
### Response 25

---

# TGT: Polyunsaturated fatty acid 5-lipoxygenase (Homo sapiens)
# ASSAY_TEXT: Inhibition of […] human 5-LOX in human PBML assessed as inhibition of A23187-induced LTB4 production at 10 uM preincubated for 15 mins measured after 15 mins by enzyme immunoassay
REPORTED_ENDPOINT: inhibition (%)
Numbers only here, please. The scale is %.

Examples with their reported inhibition follow.
NS(=O)(=O)c1ccc2c(c1)S(c1ccc(Br)cc1)=NS2(=O)=O (centres undefined)	14
O=S1(=O)N=S(c2ccccc2)c2ccccc21 (centres undefined)	14
O=S1(=O)N=C(c2ccc(Br)cc2)c2ccccc21	11
CCc1ccc(S2=NS(=O)(=O)c3cc(S(C)(=O)=O)ccc32)cc1 (centres undefined)	35
COC1(c2cc(F)cc(OCCS3=NS(=O)(=O)c4cc([N+](=O)[O-])ccc43)c2)CCOCC1 (centres undefined)	25
Cc1ccc(C2=NS(=O)(=O)c3ccccc32)cc1	9
O=[N+]([O-])c1ccc2c(c1)S(=O)(=O)N=S2c1ccncc1 (centres undefined)	17
O=S1(=O)N=S(c2ccc(Br)cc2)c2ccccc21 (centres undefined)	33

Shifting focus to the molecule that follows.
### Prompt I would be grateful if you could share the reported inhibition for CC(C)c1ccc(S2=NS(=O)(=O)c3ccc(S(N)(=O)=O)cc32)cc1 (centres undefined) .
### Response 19

---

# TGT: Prostaglandin G/H synthase 2 (Homo sapiens)
# ASSAY_TEXT: Inhibition of human recombinant COX2 expressed in Sf21 cells assessed as conversion of arachidonic acid to PGE2 at 10 uM preincubated for 15 mins measured after 5 mins by enzyme immunoassay
REPORTED_ENDPOINT: inhibition (%)
Numbers only here, please. The scale is %.

O=S1(=O)N=C(c2ccc(Br)cc2)c2ccccc21	0
NS(=O)(=O)c1ccc2c(c1)S(=O)(=O)N=S2c1ccc(Br)cc1 (stereo not given)	0
O=C(O)c1ccc2c(c1)S(=O)(=O)N=S2c1ccc(Br)cc1 (stereo not given)	7
NS(=O)(=O)c1ccc2c(c1)S(c1ccc(Cl)cc1Cl)=NS2(=O)=O (stereo not given)	9

Shifting focus to the compound that follows.
### Prompt I would be grateful if you could share the reported inhibition for CCc1ccc(C2=NS(=O)(=O)c3cc(S(N)(=O)=O)ccc32)cc1 .
### Response 0
